target: HLA-A*02:03; assay: IEDB peptide-MHC binding, purified MHC/competitive/radioactivity; bounds were set here for any values at or beyond the usual limits of such assays; conditions: source organism: Vaccinia virus WR
Answer each item with its documented IC50.
// return numeric value only (unit: nM, not printed)

Incoming: Please report the recorded IC50 for EVIERINLLV .
Outgoing: 3320

Incoming: // query IC50 value for entry FAISYCRAFI
Outgoing: 38

Incoming: What measured IC50 goes with KVTGSYNLV ?
Outgoing: 43

Incoming: Quick one: IC50 of AVITETIPI ?
Outgoing: 43

Incoming: # query: IC50 of entry SIRCVKYLL
Outgoing: 56

Incoming: Entry under review: ITLVVISVI . Reported IC50?
Outgoing: 1810

Incoming: Endpoint output: IC50 of PISDYSAEV . Value?
Outgoing: 267

Incoming: Look up IC50: ALVSDCAST
Outgoing: 31

Incoming: Name the reported IC50 value associated with the sequence DMDFDLNIFM
Outgoing: 5000

Incoming: # get_value(readout='IC50', item= LLEQLIENI )
Outgoing: 1960
